Entries annotated with measured LC retention time
assay: Waters ACQUITY UPLC BEH C18, 100 × 2.1 mm, 1.7 µm, 40 °C, 0.3 to 0.4 mL/min, estimated dead time 0.63 min; A: water + 0.1% formic acid; B: methanol + 0.1% formic acid; gradient (min/%B) 0/0.5 0.1/0.5 10/80 10.1/99.5 12/99.5; conditions: stereoisomer not certain

[
  {
    "compound": "CCC1CN2CCc3c([nH]c4cccc(OC)c34)C2CC1C(=COC)C(=O)OC (stereo not given)",
    "LC retention time [min]": 5.54
  },
  {
    "compound": "COc1c(C=CC(=O)c2ccc(O)c(O)c2)ccc(O)c1CC=C(C)C",
    "LC retention time [min]": 7.49
  },
  {
    "compound": "Oc1cc(O)c2ccc(-c3ccc(O)c(O)c3)[o+]c2c1",
    "LC retention time [min]": 3.59
  },
  {
    "compound": "C=CC1C(OC2OC(CO)C(O)C(O)C2O)OC=C2C(=O)N3Cc4cc5ccccc5nc4C3CC21 (stereo not given)",
    "LC retention time [min]": 5.27
  },
  {
    "compound": "OCC=Cc1ccc(O)cc1",
    "LC retention time [min]": 3.76
  },
  {
    "compound": "CC1OC(OC2C(CO)OC(OC3CCC4(C)C(=CC(O)C5C4CCC4(C)C5CC5OC6(CCC(C)(COC7OC(CO)C(O)C(O)C7O)O6)C(C)C54)C3)C(OC3OC(C)C(O)C(O)C3O)C2O)C(O)C(O)C1O (stereo not given)",
    "LC retention time [min]": 4.5
  },
  {
    "compound": "CNC(=O)Oc1ccc2c(c1)C1(C)CCN(C)C1N2C (stereo not given)",
    "LC retention time [min]": 3.31
  },
  {
    "compound": "O=C(O)C=Cc1ccccc1",
    "LC retention time [min]": 5.42
  },
  {
    "compound": "COc1ccc(-c2cc(=O)c3c(O)cc(O)cc3o2)cc1O",
    "LC retention time [min]": 6.78
  },
  {
    "compound": "NCCCCNC(=O)C=Cc1ccc(O)c(O)c1",
    "LC retention time [min]": 2.22
  }
]
